Where these numbers come from: the supplement of paper PMC10567573

For each record, write down the corresponding protein stability index.
B1: KLHL12 (parent)
chain: SMTTPRCYVGATVLRGRLYAIAGY

variants of: B1; assay: protein stability index of a GFP-peptide fusion (GPS, HEK-293T) (PSI 1-6); higher = more stable; settings: c terminus: a fixed tail appended;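 further: lentivirally expressed fusions sorted by FACS into six bins by GFP to DsRed ratio, PSI derived from sequencing read proportions per bin multiplied by bin number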
Answers are plain numbers.

Below: 2 variants and their reported protein stability index.
[[record]]
sequence = "SMTTPRCAVGATVLRGRLYAIAGY [Y8A]"
measured_parameter = "protein stability index"
readout_number = 2

[[record]]
sequence = "SMTTPRCYVIATVLRGRLYAIAGY [G10I]"
measured_parameter = "protein stability index"
readout_number = 2.94


Each of the following entries comes with a recorded value; kindly state protein stability index for each.
1. SMTTPRNYVGATVLRGRLYAIAGY [C7N]
2. SMTTPRCYVGATVLHGRLYAIAGY [R15H]
3. SMTTPRCYVGATVLRGRLYAIAGM [Y24M]
4. SGTTPRCYVGATVLRGRLYAIAGY [M2G]
5. DMTTPRCYVGATVLRGRLYAIAGY [S1D]
6. SMTTPRCYVGATVLMGRLYAIAGY [R15M]

1: 1.62; 2: 2.64; 3: 3.33; 4: 2.78; 5: 2.24; 6: 1.59

Working through the 6 variants below one at a time, give protein stability index for each.
1. EMTTPRCYVGATVLRGRLYAIAGY [S1E]
2. SMTTPLCYVGATVLRGRLYAIAGY [R6L]
3. SMTTPRCYVGATVLRGRLYAIHGY [A22H]
4. SMTTPRCNVGATVLRGRLYAIAGY [Y8N]
5. SMTTPRCYVGATVLQGRLYAIAGY [R15Q]
6. SMTTPRCYVGATVLRGRKYAIAGY [L18K]

1. 1.66
2. 1.18
3. 2.68
4. 1.5
5. 1.46
6. 1.75

Below are 3 variants. Give each one its protein stability index.
1. SMTTPRCYVGARVLRGRLYAIAGY [T12R]
2. SMTTPRCYVGATVLRGRLAAIAGY [Y19A]
3. SMTTPRTYVGATVLRGRLYAIAGY [C7T]

[2.21, 1.65, 2.16]

// each variant listed below needs its protein stability index
1. SMTTPRCYVGATVLRGDLYAIAGY [R17D]
2. SMTTPRCYVGATPLRGRLYAIAGY [V13P]
3. SMTTPRCYVGATVCRGRLYAIAGY [L14C]
4. SMTTPRCYVGATVLRHRLYAIAGY [G16H]

1.88
1.95
2.48
1.98

Provide the reported protein stability index of each entry below, same order.
1. SMTTPRCYVGATVFRGRLYAIAGY [L14F]
2. SMTTPRCYVGATVLRGRTYAIAGY [L18T]
3. SMTLPRCYVGATVLRGRLYAIAGY [T4L]
4. SMTTPRCYVGATVLRGRLYAITGY [A22T]
5. SMTTPRCYVGATVLRGRLYRIAGY [A20R]

1: 1.77; 2: 1.78; 3: 2.16; 4: 1.69; 5: 1.34

For every record below, what is its protein stability index?
1. SMTTPRCYVGATVLTGRLYAIAGY [R15T]
2. SMTTPRCYVGATVLRGRLYAIVGY [A22V]
3. SMTTPRCYVGATVLRGRLYAIIGY [A22I]
4. SMTTPRCYVGATVLRGRLYAFAGY [I21F]
5. SMTTPRCYVGATYLRGRLYAIAGY [V13Y]
6. SMTTPRCYVGATVLRGRLYAIGGY [A22G]
7. SMTTPRCYVGATVPRGRLYAIAGY [L14P]
8. SMTTQRCYVGATVLRGRLYAIAGY [P5Q]

1: 2.62; 2: 1.94; 3: 3.06; 4: 2.81; 5: 2.03; 6: 1.24; 7: 2.01; 8: 2.71

Need protein stability index for each of these variants.
1. SMTTPRGYVGATVLRGRLYAIAGY [C7G]
2. SMTSPRCYVGATVLRGRLYAIAGY [T4S]
3. SMTTPRCYVGATVLRGRLYAIMGY [A22M]
4. SMTTPRCYVGATVLRGRHYAIAGY [L18H]
5. SMTTPRCYVGATVLRPRLYAIAGY [G16P]

1. 3.82
2. 2.3
3. 2.01
4. 2.1
5. 2.19

Can you give me protein stability index for all of these, one by one?
1. SMTTWRCYVGATVLRGRLYAIAGY [P5W]
2. SMTTPRCYYGATVLRGRLYAIAGY [V9Y]
3. SMTTPRCYVGATVLRGRLYAIAGF [Y24F]
4. SMTTPRCYVGATVLRGRLYAIAGP [Y24P]
5. SMTTHRCYVGATVLRGRLYAIAGY [P5H]
6. SMTTPRCYVGATVLRVRLYAIAGY [G16V]
7. SMTTPRCYVGATVLRLRLYAIAGY [G16L]

2.99
3.18
3.7
2.64
4.85
3.05
2.05
